Data provenance: PubChem BioAssay (NCATS)

assay: Nrf2 qHTS screen for inhibitors: Validation (AID 493153); conditions: A549 ARE-Fluc reporter, 18-24 h; measured here: cytotoxicity max response
Records with an inconclusive call do not appear.
Parameter viability change: see the listing below.
measurement-name: viability change (%)

CC(NC(C)(C)C)C(=O)c1cccc(Cl)c1 (centres undefined) : 5.02
NCCc1ccc(O)cc1 : -8.88
CCCCC/C=C\C/C=C\C/C=C\C/C=C\CCCC(=O)NCC(=O)O : 2.11
C=C(C)[C@H]1CN[C@H](C(=O)O)[C@H]1CC(=O)O : 1.68
COc1ccc2c(c1OC)C(=O)O[C@H]2[C@@H]1c2cc3c(cc2CCN1C)OCO3 : 5.02
CCC1(c2ccc(N)cc2)CCC(=O)NC1=O (centres undefined) : 1.18
CN1C(=O)CCS(=O)(=O)C1c1ccc(Cl)cc1 (centres undefined) : -1.88
O=P1(N(CCCl)CCCl)NCCCO1 (centres undefined) : -1.15
CC(C)c1cccc(C(C)C)c1O : 0.059

* * *

Parameter max response: see the listing below.
assay: qHTS Assay for Lipid Storage Modulators (AID 1519); details: Drosophila S3 cells, BODIPY lipid droplet/cell ratio, laser cytometry; measured here: cell count channel max response; cells loaded with oleic acid
Inconclusive results are not listed.
measurement-name: max response (%)

O=P1(N(CCCl)CCCl)NCCCO1 (stereo not given) : -27.9
O=c1oc2ccccc2c(O)c1Cc1c(O)c2ccccc2oc1=O : -11.3
Cc1ccc(C(=O)c2ccc(CC(=O)O)n2C)cc1 : -5.63
CC(C)c1cccc(C(C)C)c1O : -4.81
COc1cc(OC)c(OC)cc1C=O : 14.2
C=C(C)[C@H]1CN[C@H](C(=O)O)[C@H]1CC(=O)O : -9.16
C[C@]12CCC(=O)C=C1CC[C@@H]1[C@@H]2CC[C@]2(C)C(=O)CC[C@@H]12 : 67.2
c1ccc2c(c1)sc1ccccc12 : -5.03
NC(=O)CS(=O)C(c1ccccc1)c1ccccc1 (stereo not given) : 3.09
NC(=O)c1cc([N+](=O)[O-])cc([N+](=O)[O-])c1 : 0.174

* * *

Parameter Z-AUC: see the listing below.
test: qHTS drug screen for cell cycle checkpoint inhibitors in PARPi-resistant BRCA-mutant ovarian cancer cell lines. (AID 1963452); conditions: PEO1/OlaR viability, CellTiter-Glo luminescence, 96 h; measured here: PEO4 Z-AUC; stronger effect = lower value
measurement-name: Z-AUC

CCC1(c2ccc(N)cc2)CCC(=O)NC1=O (stereo not drawn) : 1.02
CC(C)C[C@H](CN)CC(=O)O : 0.548
C[C@]12CC[C@@H]3c4ccc(OC(=O)N(CCCl)CCCl)cc4CC[C@H]3[C@@H]1CC[C@@H]2OP(=O)(O)O : 1.95
CN1C(=O)CCS(=O)(=O)C1c1ccc(Cl)cc1 (stereo not drawn) : 1.36
CC(C)c1cccc(C(C)C)c1O : 0.584
O=P1(N(CCCl)CCCl)NCCCO1 (stereo not drawn) : 1.45
COc1cccc2c1C(=O)c1c(O)c3c(c(O)c1C2=O)C[C@@](O)(C(=O)CO)CC3OC1CC(N2CCOC(OC)C2)C(O)C(C)O1 (stereo partly drawn) : -2.98
C[C@]12Cc3cn[nH]c3C[C@@H]1CC[C@@H]1[C@@H]2CC[C@@]2(C)[C@H]1CC[C@]2(C)O : 1.64
